src = patent US20140081017A1

Test system: Candida glabrata
Assay: Minimal Inhibitory Concentration (MIC) assay, broth microdilution per CLSI;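 note: two read times 24 hr and 48 hr of incubation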
Assay type: cell-based
Conditions: Nakaseomyces glabratus; 48 hr reading (second value of cell 24 hr/48 hr); read-out: Minimum Inhibitory Concentrations against Yeast Isolates, Candida glabrata
Recorded measurements of MIC, one per entry
Write the number in µg/mL without appending the unit.

# molecule, unitOfMeasure, MIC
data = [
    ("OC(Cn1cncn1)(Cn1cncn1)c1ccc(F)cc1F [Fluconazole, reference compound]", "µg/mL", 8),
    ("COc1ccc(CCCCc2ccc(CC(=O)NO)cc2)cc1OC", "µg/mL", 4),
    ("O=C(Cc1ccc(CCCCc2cccc(NC(=O)CO)c2)cc1)NO", "µg/mL", 16),
]

Please turn your attention to the following entry.
Task: Query (molecule): O=C(Cc1ccc(C(O)CCCc2ccccc2)cc1)NO (centres unmarked) ; field requested: MIC
Result: 64
